Test: Pharmacokinetics of dabigatran etexilate, dabigatran and dabigatran acylglucuronide in plasma after 150 mg dabigatran etexilate with or without simvastatin
Type: in vivo, human
Conditions: human, plasma, oral; 150 mg dabigatran etexilate alone; mean (SD); read-out: MRT
experimental.readout: MRT (h)

P = [H]/N=C(/N)c1ccc(NCc2nc3cc(C(=O)N(CCC(=O)O)c4ccccn4)ccc3n2C)cc1
Q = CCCCCCOC(=O)NC(=N)c1ccc(NCc2nc3cc(C(=O)N(CCC(=O)OCC)c4ccccn4)ccc3n2C)cc1 [Dabigatran etexilate]
Q: Please let me know which one, P or Q , has a lower measured MRT value. # answer = label of selected item
Result: Q
(Q: 1.9 h, P: 7.1 h)

###

Assay: Pharmacokinetics of dabigatran etexilate, dabigatran and dabigatran acylglucuronide in plasma after 150 mg dabigatran etexilate with or without simvastatin
Type: in vivo, human
Conditions: human, plasma, oral; 150 mg dabigatran etexilate alone; mean (SD); read-out: Cmax
experimental.readout: Cmax (ng/mL)

1 = CCCCCCOC(=O)NC(=N)c1ccc(NCc2nc3cc(C(=O)N(CCC(=O)OCC)c4ccccn4)ccc3n2C)cc1 [Dabigatran etexilate]
2 = [H]/N=C(/N)c1ccc(NCc2nc3cc(C(=O)N(CCC(=O)O)c4ccccn4)ccc3n2C)cc1
Q: Consider 1 and 2 . Which of these has its Cmax at a higher number? Output the label that corresponds to your choice.
Result: 2

###

Assay: Pharmacokinetics of dabigatran etexilate, dabigatran and dabigatran acylglucuronide in plasma after 150 mg dabigatran etexilate with or without simvastatin
Type: in vivo, human
Conditions: human, plasma, oral; 150 mg dabigatran etexilate alone; mean (SD)
experimental.readout: half-life (h)

1 = [H]/N=C(/N)c1ccc(NCc2nc3cc(C(=O)N(CCC(=O)O)c4ccccn4)ccc3n2C)cc1
2 = CCCCCCOC(=O)NC(=N)c1ccc(NCc2nc3cc(C(=O)N(CCC(=O)OCC)c4ccccn4)ccc3n2C)cc1 [Dabigatran etexilate]
Q: Select the item with the higher value of half-life from the options 1 and 2 listed. Give the chosen item's label as your response.
Result: 1
(1: 6.1 h, 2: 3.4 h)

###

Test: Pharmacokinetics of dabigatran etexilate, dabigatran and dabigatran acylglucuronide in plasma after 150 mg dabigatran etexilate with or without simvastatin
Assay type: in vivo, human
Conditions: human, oral; 150 mg dabigatran etexilate alone; plasma; mean (SD)
experimental.readout: AUC(0-inf) (ng·h/mL)

a = [H]/N=C(/N)c1ccc(NCc2nc3cc(C(=O)N(CCC(=O)O)c4ccccn4)ccc3n2C)cc1
b = CCCCCCOC(=O)NC(=N)c1ccc(NCc2nc3cc(C(=O)N(CCC(=O)OCC)c4ccccn4)ccc3n2C)cc1 [Dabigatran etexilate]
Q: Identify the item whose AUC(0-inf) is the smaller number: a or b To answer, give the label that identifies your chosen option.
Result: b
